- target-of-assay: Beta5 (purified human constitutive proteasome) (Homo sapiens)
- method-summary: Determination of Beta5 activity (fluorescence intensity assay, Suc-LLVY-AMC)
- Assay type: biochemical
- conditions: incubation for 20 minutes at 25° C.; concentrations 30 μM to 15 pM; read-out: Beta5 IC50
measure-name: IC50

compound="Cc1ccc(C[C@H](NC(=O)[C@@H]2C[C@H]3CC[C@@H]2O3)B(O)O)c(C)c1 [compound 25]" target_of_assay="Beta5 (purified human constitutive proteasome) (Homo sapiens)" observed_value="5 to 30 µM"
compound="O=C(N[C@@H](Cc1coc2ccccc12)B(O)O)[C@H]1C[C@@H]2CC[C@H]1O2 [compound 8]" target_of_assay="Beta5 (purified human constitutive proteasome) (Homo sapiens)" observed_value="5 to 30 µM"
compound="O=C(N[C@@H](Cc1coc2c(Cl)cccc12)B(O)O)[C@@H]1C[C@H]2CC[C@@H]1O2 [Compound No. 13]" target_of_assay="Beta5 (purified human constitutive proteasome) (Homo sapiens)" observed_value="0.5 to 5 µM"
compound="O=C(N[C@@H](Cc1coc2ccccc12)B(O)O)[C@@H]1C[C@H]2CC[C@@H]1O2 [Compound No. 9]" target_of_assay="Beta5 (purified human constitutive proteasome) (Homo sapiens)" observed_value="0.5 to 5 µM"
compound="O=C(N[C@@H](Cc1coc2c(Cl)cccc12)B(O)O)[C@H]1C[C@@H]2CC[C@H]1O2 [compound 12]" target_of_assay="Beta5 (purified human constitutive proteasome) (Homo sapiens)" observed_value="5 to 30 µM"
compound="O=C(N[C@@H](Cc1coc2ccccc12)B(O)O)C1C[C@H]2O[C@@H]1c1ccccc12 (stereo partly shown) [compound 22]" target_of_assay="Beta5 (purified human constitutive proteasome) (Homo sapiens)" observed_value="5 to 30 µM"

With those in mind, consider the next compound.
For Beta5 (purified human constitutive proteasome) (Homo sapiens), give IC50 of the listed compound: O=C(N[C@@H](Cc1coc2ccccc12)B(O)O)C1C[C@@H]2O[C@H]1c1ccccc12 (stereo partly shown) [compound 24] 0.05 to 0.5 µM

Origin of measurements: patent US11858951B2
